Numbers sourced from ChEMBL document CHEMBL1201862.

Test system: U-251
Test: NCI tumour cell line growth inhibition, 48 h
The source made the active and inactive calls. Rule as the data show it: active = GI50 up to about 1.1 µM and inactive = higher. Starred links: 1 amine or outer side, 2 acyl side, 3 side chain; linkers in the order of their positions; H or OH if unused. Positions of bridges follow the written chain, without caps; N, C: chain ends. Non-standard residues stand in square brackets, D forms with d. Residues, ends and D or L forms follow the SMILES beside them. *: point of attachment. X40 = CC[C@H](C)[C@@H](N[*:1])[C@@H](O)CC(=O)[*:2]; NMeY = CN[C@@H](Cc1ccc(O)cc1)C(=O)O; dNMeL = CN[C@H](CC(C)C)C(=O)O; Hiv = CC(C)[C@H](O)C(=O)O; Pyruvoyl = CC(=O)C(=O)*
Can you answer with just one of these options? true (1) for active, false (0) for inactive

Worked examples follow.
1. CC[C@H](C)[C@H]1NC(=O)[C@@H](NC(=O)[C@@H](CC(C)C)N(C)C(=O)[C@@H]2CCCN2C(=O)C(C)=O)[C@@H](C)OC(=O)[C@H](Cc2ccc(OC)cc2)N(C)C(=O)[C@@H]2CCCN2C(=O)[C@H](CC(C)C)NC(=O)[C@H](C(C)C)OC(=O)C[C@@H]1O (Pyruvoyl-P[dNMeL]T[X40][Hiv]LP[NMeY](Me); ester 3-C) : true (1)
2. COc1cccc(CCn2c(N)c(-c3cc(Cl)cc(Cl)c3)c3ccc([N+](=O)[O-])cc3c2=O)c1 : false (0)

Req: Test call for this compound, please: COc1nc2c(c(=O)[nH]1)N=C(c1ccc([N+](=O)[O-])cc1)CC(c1ccccc1)N2 (configuration not stated)
Resp: false (0)

Req: # lookup: test call for C#CC1(O)CCC2[C@@H]3CCc4cc(Oc5nc(F)nc(-c6c(C)c(C(=O)OCC)n7ccccc67)n5)ccc4C3CC[C@@]21C (some centres not stated)
Resp: false (0)
